// data source = patent US20110014213A1

Entries and their measured IC50 of inhibition of α9-dependent cell adhesion follow.
Target: T1, mouse α9 integrin (mouse, UniProt B8JK39 29-1036)
T1 chain: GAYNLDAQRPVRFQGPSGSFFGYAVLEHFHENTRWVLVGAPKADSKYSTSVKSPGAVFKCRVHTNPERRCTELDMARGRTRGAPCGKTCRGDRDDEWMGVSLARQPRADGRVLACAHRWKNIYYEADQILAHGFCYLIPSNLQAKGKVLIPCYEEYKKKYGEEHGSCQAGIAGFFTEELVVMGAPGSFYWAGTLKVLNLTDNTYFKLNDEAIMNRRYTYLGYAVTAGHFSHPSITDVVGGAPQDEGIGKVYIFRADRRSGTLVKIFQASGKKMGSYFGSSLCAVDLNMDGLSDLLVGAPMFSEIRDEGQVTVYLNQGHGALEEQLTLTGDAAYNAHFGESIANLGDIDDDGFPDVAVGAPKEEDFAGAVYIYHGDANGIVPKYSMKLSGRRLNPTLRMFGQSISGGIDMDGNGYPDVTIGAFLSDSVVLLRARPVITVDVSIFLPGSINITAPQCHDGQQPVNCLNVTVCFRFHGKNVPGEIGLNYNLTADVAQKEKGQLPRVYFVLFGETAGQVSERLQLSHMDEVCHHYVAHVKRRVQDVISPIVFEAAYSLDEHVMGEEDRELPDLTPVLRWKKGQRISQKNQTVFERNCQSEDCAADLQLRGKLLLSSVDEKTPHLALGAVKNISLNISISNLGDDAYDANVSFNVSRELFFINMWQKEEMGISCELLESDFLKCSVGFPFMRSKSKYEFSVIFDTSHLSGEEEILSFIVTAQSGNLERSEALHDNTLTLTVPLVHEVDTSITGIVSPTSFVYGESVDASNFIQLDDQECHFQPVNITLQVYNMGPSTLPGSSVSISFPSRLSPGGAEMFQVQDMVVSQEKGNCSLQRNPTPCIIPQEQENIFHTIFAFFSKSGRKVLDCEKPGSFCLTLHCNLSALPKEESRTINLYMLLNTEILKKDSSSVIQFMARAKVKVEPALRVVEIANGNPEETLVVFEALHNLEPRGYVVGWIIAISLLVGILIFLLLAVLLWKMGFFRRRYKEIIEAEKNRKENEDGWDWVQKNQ
Assay: cell-based or functional assay
Respond with the bare value in µg/mL.

Recorded results for 2 binders are shown here.
| binder | recorded.number |
| --- | --- |
| HA9-107 scFv-Fc (Fc fusion, not shown: a dimerising Fc or GST) scFv: EVQLVESGGGVVRPGGSLRLSCAASGFAFGDYGMSWVRQAPGKGLEWVSGINWNGGSTGYADSVKGRFTTSRDNAKNSLYLQMNSLRAEDTALYYCARDENYDILTNEYYYGMDVWGQGTTVTVSSGGGGSGGGGSGGGGSQSVVTQPPSVSAAPGQKVTISCSGSSSNIGNNYVSWYQQLPGTAPKLLIYDNNKRPSGIPDRFSASKSGTSATLGITGLQTGDEADYYCGTWDSSLTVWAFGGGTKLTVLG | 0.067 |
| MA9-413 scFv-Fc (Fc fusion, Divalent scFv-Fc with mouse IgG1 Fc, expressed in CHO-DG44; also called ANM-2; not shown: Fc region of mouse IgG1 and its junction to the scFv) scFv: EVQLVESGGGVVRPGGSLRLSCAASGFAFGDYGMSWVRQAPGKGLEWVSGINWNGGSTGYADSVKGRFTTSRDNAKNSLYLQMNSLRAEDTALYYCARDENYDILTGYYYYGMDVWGQGTTVTVSSGGGGSGGGGSGGGGSQSVVTQPPSVSAAPGQKVTISCSGSSSNIGNNYVSWYQQLPGTAPKLLIYDNNKRPSGIPDRFSASKSGTSATLGITGLQTGDEADYYCGTWDSSLTVWAFGGGTKLTVLG | 0.34 |

The binder identified as MA9-418 scFv-Fc (Fc fusion, not shown: a dimerising Fc or GST) scFv: EVQLVESGGGVVRPGGSLRLSCAASGFAFGDYGMSWVRQAPGKGLEWVSGINWNGGSTGYADSVKGRFTTSRDNAKNSLYLQMNSLRAEDTALYYCARDENYDILTGAYYYGMDVWGQGTTVTVSSGGGGSGGGGSGGGGSQSVVTQPPSVSAAPGQKVTISCSGSSSNIGNNYVSWYQQLPGTAPKLLIYDNNKRPSGIPDRFSASKSGTSATLGITGLQTGDEADYYCGTWDSSLTVWAFGGGTKLTVLG registered its IC50 of inhibition of α9-dependent cell adhesion at 0.96

Recorded result, HA9-212 scFv-Fc (Fc fusion, not shown: a dimerising Fc or GST) scFv: EVQLVESGGGVVRPGGSLRLSCAASGFAFGEYGMSWVRQAPGKGLEWVSGINWNGGSTGYADSVQGRFTTSRDNAKNSLYLQMNSLRAEDTALYYCARDENYDILTGNYYYGMDVWGQGTTVTVSSGGGGSGGGGSGGGGSQSVVTQPPSVSAAPGQKVTISCSGSSSNIGNNYVSWYQQLPGTAPKLLIYDNNKRPSGIPDRFSASKSGTSATLGITGLQTGDEADYYCGTWDSSLTVWAFGGGTKLTVLG , IC50 of inhibition of α9-dependent cell adhesion: 3.3

Quick note, IC50 of inhibition of α9-dependent cell adhesion for HA9-143 scFv-Fc (Fc fusion, not shown: a dimerising Fc or GST) scFv: EVQLVESGGGVVRPGGSLRLSCAASGFAFGEYGMSWVRQAPGKGLEWVSGINWNGGSTGYADSVKGRFTTSRDNAKNSLYLQMNSLRAEDTALYYCARDENYDILTGHYYYGMDVWGQGTTVTVSSGGGGSGGGGSGGGGSQSVVTQPPSVSAAPGQKVTISCSGSSSNIGNNYVSWYQQLPGTAPKLLIYDNNKRPSGIPDRFSASKSGTSATLGITGLQTGDEADYYCGTWDSSLTVWAFGGGTKLTVLG landed at 2.32
